Sourced from the supplement of paper PMC10567573

B1: NET1 (parent)
chain: RVRPLARVTSLANLISPVRNGAVR

Variants of: B1
experiment: protein stability index of a GFP-peptide fusion (GPS, HEK-293T) (PSI 1-6); higher = more stable;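 note: lentivirally expressed fusions sorted by FACS into six bins by GFP to DsRed ratio, PSI derived from sequencing read proportions per bin multiplied by bin number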
protocol conditions: c terminus: a fixed tail appended
Give measured protein stability index for each item. Keep answers brief.
One number for each entry.

Solved cases below.
RVRPLAGVTSLANLISPVRNGAVR : 3.93
RVRPLARVTSLANLISPVRFGAVR : 2.26
RVRPFARVTSLANLISPVRNGAVR : 2.71
RVRPLAHVTSLANLISPVRNGAVR : 2.71

Dear colleague, could you send me protein stability index for each of the items below? Thanks.
1. RVRPLARVTSLLNLISPVRNGAVR
2. RVRPLARVTSLANLISPVRNGPVR
3. RVRPLARVTSLANLRSPVRNGAVR
4. RVRPLARVTSLANLISPVHNGAVR
5. RVRPLARVTSLANLLSPVRNGAVR
6. RVRNLARVTSLANLISPVRNGAVR

1: 2.77; 2: 3.49; 3: 3.56; 4: 2.69; 5: 3.03; 6: 2.9
